Please go through the items and note down their Kd.
- System Name: CDK9/Cyclin K (Homo sapiens)
- Construct: His
- Sequence (P50750 whole entry): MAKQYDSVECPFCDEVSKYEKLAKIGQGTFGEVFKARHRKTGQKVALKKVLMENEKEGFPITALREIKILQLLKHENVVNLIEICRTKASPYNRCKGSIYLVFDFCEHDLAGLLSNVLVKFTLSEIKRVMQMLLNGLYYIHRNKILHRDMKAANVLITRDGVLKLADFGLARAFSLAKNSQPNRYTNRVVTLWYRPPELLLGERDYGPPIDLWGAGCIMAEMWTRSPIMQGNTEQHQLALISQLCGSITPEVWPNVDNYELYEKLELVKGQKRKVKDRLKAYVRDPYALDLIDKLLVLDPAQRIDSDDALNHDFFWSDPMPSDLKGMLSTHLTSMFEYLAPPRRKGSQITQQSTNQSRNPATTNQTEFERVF
- Sequence (O75909 1-357 isoform O75909-1 partner): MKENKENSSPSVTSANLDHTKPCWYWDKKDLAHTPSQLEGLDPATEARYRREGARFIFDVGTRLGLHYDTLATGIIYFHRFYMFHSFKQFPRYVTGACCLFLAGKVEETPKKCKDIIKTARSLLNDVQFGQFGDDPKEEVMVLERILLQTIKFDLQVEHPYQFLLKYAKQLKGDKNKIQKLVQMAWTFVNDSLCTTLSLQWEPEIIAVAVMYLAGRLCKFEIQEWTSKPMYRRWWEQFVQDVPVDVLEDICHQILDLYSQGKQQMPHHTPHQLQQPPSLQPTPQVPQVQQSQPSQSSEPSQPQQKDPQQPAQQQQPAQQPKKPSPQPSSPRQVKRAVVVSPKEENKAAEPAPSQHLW
- Experiment Summary: LanthaScreen Eu Kinase Binding Assay, CDK9/Cyclin K
- Condition Description: tracer 236, read-out: CDK9/Cyclin K (activity range), Kd
- Protocol: This protocol describes how the LanthaScreen Eu Kinase Binding Assay was performed to determine dissociation constants (Kd) of compounds of general formula (I) and CDK/Cyclin complexes. […] Binding of the tracer to the kinase is detected using a Eu-labeled antibody. […] The compounds of general formula (I) summarized in Table 1 were diluted from a 10 mM DMSO stock solution 1:10 in a total volume of 15 μL DMSO. […] Positive and negative controls were calculated from at least 8 different sample wells. […]

Kd lookup needed for `COC(=O)[C@H]1CCCCN1c1ncnc(Nc2cccc(CS(N)(=O)=O)c2)n1` , thanks. 100 to 1000 nM

Kd lookup needed for `COC[C@H]1CCN1c1ncnc(Nc2cccc(CS(N)(=O)=O)c2)n1` , thanks. 1000 to 10000 nM

Kd lookup needed for `NS(=O)(=O)Cc1cccc(Nc2ncnc(N3CCCC(F)(F)C3)n2)c1` , thanks. 100 to 1000 nM

Kd lookup needed for `Nc1cccc2c1CCN(c1ncnc(Nc3cccc(CS(N)(=O)=O)c3)n1)C2` , thanks. 1000 to 10000 nM

Kd lookup needed for `COC[C@@H]1CC[C@@H](COC)N1c1ncnc(Nc2cccc(CS(N)(=O)=O)c2)n1` , thanks. > 10000 nM

Kd lookup needed for `NS(=O)(=O)Cc1cccc(Nc2ncnc(N3CCc4ncccc4C3)n2)c1` , thanks. < 100 nM

Kd lookup needed for `NS(=O)(=O)Cc1cccc(Nc2ncnc(N3CCc4ccccc4C3)n2)c1` , thanks. 1000 to 10000 nM

Kd lookup needed for `NS(=O)(=O)Cc1cccc(Nc2ncnc(N3CCC[C@H]3C(F)(F)F)n2)c1` , thanks. 1000 to 10000 nM

Kd lookup needed for `NS(=O)(=O)Cc1cccc(Nc2ncnc(N3CCCC3)n2)c1` , thanks. 1000 to 10000 nM

Kd lookup needed for `COC(=O)[C@H]1CCN1c1ncnc(Nc2cccc(CS(N)(=O)=O)c2)n1` , thanks. 1000 to 10000 nM

Kd lookup needed for NS(=O)(=O)Cc1cccc(Nc2ncnc(N3CCCC3c3ccccc3)n2)c1 (racemic) , thanks. < 100 nM

Kd lookup needed for `NS(=O)(=O)Cc1cccc(Nc2ncnc(N3CCCn4nccc43)n2)c1` , thanks. < 100 nM

Kd lookup needed for `NS(=O)(=O)Cc1cccc(Nc2ncnc(N3CCc4ccccc43)n2)c1` , thanks. < 100 nM

Kd lookup needed for `NS(=O)(=O)Cc1cccc(Nc2ncnc(N3Cc4cncnc4C3)n2)c1` , thanks. 1000 to 10000 nM

Kd lookup needed for `COC(=O)[C@H]1CCCN1c1ncnc(Nc2cccc(CS(N)(=O)=O)c2)n1` , thanks. 100 to 1000 nM

Kd lookup needed for NS(=O)(=O)Cc1cccc(Nc2ncnc(N3CCCCC3c3ccccc3)n2)c1 (racemic) , thanks. 100 to 1000 nM

Kd lookup needed for `NS(=O)(=O)Cc1cccc(Nc2ncnc(N3Cc4cccnc4C3)n2)c1` , thanks. 100 to 1000 nM

Kd lookup needed for COCC1CCCCN1c1ncnc(Nc2cccc(CS(N)(=O)=O)c2)n1 (racemic) , thanks. 100 to 1000 nM

Kd lookup needed for `NS(=O)(=O)Cc1cccc(Nc2ncnc(N3CCC[C@H]3CN3CCCC3)n2)c1` , thanks. > 10000 nM

Kd lookup needed for `COC[C@H]1CC[C@H](COC)N1c1ncnc(Nc2cccc(CS(N)(=O)=O)c2)n1` , thanks. > 10000 nM

Kd lookup needed for NS(=O)(=O)Cc1cccc(Nc2ncnc(N3CCNCC3CO)n2)c1 (racemic) , thanks. > 10000 nM

Kd lookup needed for `NS(=O)(=O)Cc1cccc(Nc2ncnc(N3CCc4sccc4C3)n2)c1` , thanks. 100 to 1000 nM

Kd lookup needed for `NS(=O)(=O)Cc1cccc(Nc2ncnc(N3CCC[C@@H]3COCc3ccccc3)n2)c1` , thanks. 100 to 1000 nM

Kd lookup needed for `NS(=O)(=O)Cc1cccc(Nc2ncnc(N3CCc4ncncc4C3)n2)c1` , thanks. 1000 to 10000 nM

Kd lookup needed for `NS(=O)(=O)Cc1cccc(Nc2ncnc(N3Cc4cn[nH]c4C3)n2)c1` , thanks. < 100 nM
